List of Ki values.
- SYSTEM: STAT6 protein (Homo sapiens, UniProt P42226)
- Sequence (P42226 whole entry): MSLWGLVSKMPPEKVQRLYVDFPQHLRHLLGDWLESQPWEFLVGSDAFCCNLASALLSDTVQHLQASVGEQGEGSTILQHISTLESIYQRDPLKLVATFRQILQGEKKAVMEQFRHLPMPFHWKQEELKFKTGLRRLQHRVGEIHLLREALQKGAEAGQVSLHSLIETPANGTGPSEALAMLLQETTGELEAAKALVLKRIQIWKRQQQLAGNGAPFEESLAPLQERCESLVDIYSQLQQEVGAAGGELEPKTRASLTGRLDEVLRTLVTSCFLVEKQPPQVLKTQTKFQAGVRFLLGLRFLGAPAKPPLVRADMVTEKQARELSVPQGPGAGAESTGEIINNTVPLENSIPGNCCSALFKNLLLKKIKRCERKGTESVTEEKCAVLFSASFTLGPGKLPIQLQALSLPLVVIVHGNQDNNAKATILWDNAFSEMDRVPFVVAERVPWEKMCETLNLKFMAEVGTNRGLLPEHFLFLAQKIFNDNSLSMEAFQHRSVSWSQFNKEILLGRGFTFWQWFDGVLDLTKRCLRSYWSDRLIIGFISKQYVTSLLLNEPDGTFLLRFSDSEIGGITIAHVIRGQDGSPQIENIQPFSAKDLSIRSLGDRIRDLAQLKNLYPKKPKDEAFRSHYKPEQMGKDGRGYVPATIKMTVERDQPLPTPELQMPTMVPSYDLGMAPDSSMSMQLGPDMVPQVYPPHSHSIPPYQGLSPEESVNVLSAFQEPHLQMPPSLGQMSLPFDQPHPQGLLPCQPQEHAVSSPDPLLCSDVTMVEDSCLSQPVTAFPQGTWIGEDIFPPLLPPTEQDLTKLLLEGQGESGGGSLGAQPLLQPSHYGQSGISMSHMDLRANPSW
- MEASUREMENT_PROTOCOL: Fluorescence polarization (FP) binding assay, STAT6
- STUDY_CONDITIONS: FP competition, 5 nM fluorescein-labeled tracer, 200 nM protein, PBS pH7.4; read-out: Binding STAT6

Field: example entries. Status: answers known.
O=C(N[C@@H](Cc1cccnc1)C(=O)N1CCC[C@H]1C(=O)N1CCO[C@H](c2ccccc2)C1)c1cc2cc(C(F)(F)P(=O)(O)O)ccc2s1 [Compound 271] : 100 to 1000 nM
CC(C)(C)[C@H](NC(=O)c1cc2cc(C(F)(F)P(=O)(O)O)ccc2s1)C(=O)N1CCC[C@H]1C(=O)N1C[C@@H]2CCN(C(=O)c3ccc(F)cc3)[C@@H]2C1 [Compound 97] : > 10000 nM
CC(=O)N1CC[C@@H]2CCN(C(=O)[C@@H]3CCCN3C(=O)[C@@H](NC(=O)c3cc4cc(C(F)(F)P(=O)(O)O)ccc4s3)C(C)(C)C)C[C@@H]21 [Compound 81] : > 10000 nM
CC(C)(C)[C@H](NC(=O)c1cc2cc(C(F)(F)P(=O)(O)O)ccc2s1)C(=O)N1Cc2ccccc2C[C@H]1C(=O)N1CCOC(c2cccnc2)C1 (stereo partly shown) [Compound 217] : < 100 nM

Please look at this compound and report its Ki: CC(=O)N1CC[C@H]2CC[C@@H](C(=O)N3CCCc4ccccc4C3)N2C(=O)[C@@H](NC(=O)c2cc3cc(C(F)(F)P(=O)(O)O)ccc3[nH]2)C1 [Compound 369]
> 10000 nM

Please look at this compound and report its Ki: CCC(CC)[C@H](NC(=O)c1cc2cc(C(F)(F)P(=O)(O)O)ccc2s1)C(=O)N1CCC[C@H]1C(=O)N1CCO[C@H](c2ccccc2)C1 [Compound 144]
100 to 1000 nM

Please look at this compound and report its Ki: O=C(N[C@@H](Cc1nc2ccccc2s1)C(=O)N1CCC[C@H]1C(=O)N1CCO[C@H](c2ccccc2)C1)c1cc2cc(C(F)(F)P(=O)(O)O)ccc2s1 [Compound 286]
100 to 1000 nM

* * *

- SYSTEM: STAT6 protein (Homo sapiens)
- MEASUREMENT_PROTOCOL: Fluorescence polarization (FP) binding assay, STAT6
- STUDY_CONDITIONS: FP competition, 5 nM fluorescein-labeled tracer, 200 nM protein, PBS pH7.4; read-out: Binding STAT6
pKi: −log10 of the molar value.
List of pKi values.

Field: example entries. Status: answers known.
CCO[C@@H]1CCN(C(=O)[C@@H](NC(=O)c2cc3cc(C(F)(F)P(=O)(O)O)ccc3s2)C(C)(C)C)[C@@H]1C(=O)N1CCO[C@H](c2ccccc2)C1 : 6.00 to 7.00
CC(C)(C)[C@H](NC(=O)c1cc2cc(C(F)(F)P(=O)(O)O)ccc2s1)C(=O)N1CCC[C@H]1C(=O)N1CC[C@H]2CCN[C@H]2C1 : < 5.00
O=C(N[C@H](C(=O)N1CCC[C@H]1C(=O)N1CCO[C@H](c2ccccc2)C1)C1CCCCC1)c1cc2cc(C(F)(F)P(=O)(O)O)ccc2s1 : 6.00 to 7.00
CC(C)(C)[C@H](NC(=O)c1cc2cc(C(F)(F)P(=O)(O)O)ccc2s1)C(=O)N1CCCCC[C@H]1C(=O)Nc1ncc(-c2ccccc2)s1 : 5.00 to 6.00

Next up:
Please look at this compound and report its pKi: CC(C)(C)[C@H](NC(=O)c1cc2cc(C(F)(F)P(=O)(O)O)ccc2s1)C(=O)N1Cc2ccccc2C[C@H]1C(=O)N1CCSC(c2ccccc2)C1 (some centres unmarked)
> 7.00
